Reference for the values: ChEMBL document CHEMBL5705903

testedSystem: UniProtKB O60341

| recordSmiles | Ki [µM] |
| --- | --- |
| O=C(O)c1ccc(CN2CCC(CN[C@@H]3C[C@H]3c3ccccc3)CC2)cc1 | 1.7 |

###

testedSystem: 5-hydroxytryptamine receptor 2C (Homo sapiens, UniProt P28335)
Sequence (P28335 whole entry): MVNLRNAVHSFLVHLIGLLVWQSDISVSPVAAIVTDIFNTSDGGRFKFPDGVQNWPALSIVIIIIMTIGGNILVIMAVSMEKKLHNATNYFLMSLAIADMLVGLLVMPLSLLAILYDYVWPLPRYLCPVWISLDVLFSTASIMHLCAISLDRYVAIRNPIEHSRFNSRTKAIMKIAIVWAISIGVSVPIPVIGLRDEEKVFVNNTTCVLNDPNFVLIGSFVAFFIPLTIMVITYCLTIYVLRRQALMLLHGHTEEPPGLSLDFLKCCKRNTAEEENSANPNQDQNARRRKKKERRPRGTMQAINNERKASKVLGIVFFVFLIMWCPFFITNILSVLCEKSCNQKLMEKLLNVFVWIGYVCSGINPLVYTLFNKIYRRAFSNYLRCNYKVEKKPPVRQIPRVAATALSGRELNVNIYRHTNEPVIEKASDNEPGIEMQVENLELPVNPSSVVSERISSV
assayDetails: Agonist activity at 5-HT2C receptor (unknown origin)
Type: functional
The following compounds are shown together with reported EC50 values.

| compound | EC50 |
| --- | --- |
| c1ccc([C@@H]2C[C@H]2NC2CCNCC2)cc1 | > 25 µM |
| O=C(O)c1ccc(CN2CCC(CN[C@@H]3C[C@H]3c3ccccc3)CC2)cc1 [GSK2879552] | > 40 µM |
